meta.source: patent US5244908A

system.name: calmodulin (Bos taurus, UniProt P62157)
run.description: Calmodulin inhibitory activity (calmodulin-activated cyclic nucleotide phosphodiesterase, [3H]cGMP)
Assay type: biochemical
assay.context: 10^-5 M
property.label: inhibition at 10 µM (%)

Look over these answered cases.
compound: CS(=O)(=O)NCCOc1cccc2nccn12 [Compound 62]
inhibition at 10 µM (%): 79

compound: CS(=O)(=O)NCCSc1cccc2ncc(CN3CCOCC3)n12 [Compound 14]
inhibition at 10 µM (%): 85

compound: COc1ccc(NC(=S)NCCSc2cccc3nccn23)cc1 [Compound 109]
inhibition at 10 µM (%): 50

compound: O=C(NCCSc1cccc2nccn12)C(F)(F)F [Compound 84]
inhibition at 10 µM (%): 69

compound: O=S(=O)(NCCSc1cccc2nccn12)c1cc(Cl)c(Cl)cc1Cl [Compound 37]
inhibition at 10 µM (%): 58

compound: CS(=O)(=O)NCCSc1cccc2nccn12 [Compound 1]
inhibition at 10 µM (%): 94

a. COC(=O)NCCSc1cccc2nccn12 [Compound 128]
b. O=S(=O)(NCCSc1cccc2nccn12)c1cccc2ccccc12 [Compound 42]
# input Kindly compare a with b and tell me which has the lower inhibition at 10 µM figure. Answer format: the label of the selected item.
# output a
